target: P2X7 receptor (Homo sapiens (Human), UniProt Q99572); experiment: P2X7 FLIPR assay: antagonism of BzATP response in 293 HEK cells stably expressing P2X7 receptor; format: cell-based; conditions: FLIPR fluorescence (Fluo-4), agonist BzATP, 293 HEK cells stably transfected with P2X7 receptor
Sequence (Q99572 whole entry): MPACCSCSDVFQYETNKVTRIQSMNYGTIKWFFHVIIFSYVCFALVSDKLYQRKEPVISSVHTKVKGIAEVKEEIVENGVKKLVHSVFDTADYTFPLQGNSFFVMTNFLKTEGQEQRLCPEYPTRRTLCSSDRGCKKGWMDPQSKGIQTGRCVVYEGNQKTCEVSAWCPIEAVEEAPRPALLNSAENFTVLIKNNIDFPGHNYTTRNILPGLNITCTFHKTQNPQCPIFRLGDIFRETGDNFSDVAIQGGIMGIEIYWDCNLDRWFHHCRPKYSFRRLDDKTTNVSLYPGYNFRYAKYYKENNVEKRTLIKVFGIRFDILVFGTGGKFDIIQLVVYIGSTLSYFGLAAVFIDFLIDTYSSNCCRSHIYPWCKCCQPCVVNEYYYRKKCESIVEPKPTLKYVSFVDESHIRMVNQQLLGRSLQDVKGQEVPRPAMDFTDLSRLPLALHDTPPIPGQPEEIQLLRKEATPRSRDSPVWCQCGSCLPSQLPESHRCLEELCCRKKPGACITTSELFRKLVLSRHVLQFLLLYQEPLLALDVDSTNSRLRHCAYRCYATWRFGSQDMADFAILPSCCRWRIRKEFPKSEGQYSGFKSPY
recorded.endpoint: IC50 (nM)

1. COc1cccc(C(=O)NCC(c2cnc(C(F)(F)F)nc2)N2CCOCC2)c1Cl (single isomer, unassigned; (-)) [(−)2-chloro-3-methoxy-N-[2-morpholino-2-[2-(trifluoromethyl)] : 8.2
2. O=C(NCC(c1ccc(C(F)(F)F)nc1)N1CCC(F)(F)CC1)c1cccc(F)c1Cl (single isomer, unassigned; (+)) [(+)2-chloro-N-[2-(4,4-difluoro-1-piperidyl)-2-[6-(trifluorom] : 1.7

A: Cc1ncc(C(CNC(=O)c2cccc(Cl)c2Cl)N2CCC(F)CC2)cn1 (single isomer, unassigned; (+)) [(+)2,3-dichloro-N-[2-(4-fluoro-1-piperidyl)-2-(2-methylpyrim]
B: CCc1ncc(C(CNC(=O)c2c(F)cccc2Cl)N2CCC(F)(F)CC2)cn1 (single isomer, unassigned; (+)) [(+)2-chloro-N-[2-(4,4-difluoro-1-piperidyl)-2-(2-ethylpyrimi]
## Input Of the pair A and B , name the member with the lesser recorded IC50. Select an item and report its label.
## Output A
(A: 6.5 nM, B: 14 nM)

====

target: P2X7 receptor (Homo sapiens (Human), UniProt Q99572); assay: P2X7 FLIPR assay: antagonism of BzATP response in 293 HEK cells stably expressing P2X7 receptor; conditions: FLIPR fluorescence (Fluo-4), agonist BzATP, 293 HEK cells stably transfected with P2X7 receptor
recorded.endpoint: IC50 (nM)

Consider the reported IC50 for these compounds:
1. Cn1cc(C(CNC(=O)c2c(Cl)cccc2Cl)N2CCC(F)(F)CC2)cn1 (single isomer, unassigned; (-)) [(−)2,6-dichloro-N-[2-(4,4-difluoro-1-piperidyl)-2-(1-methylp] : 44
2. O=C(NCC(c1cnc(C(F)F)nc1)N1CCOCC1)c1ccccc1Cl (single isomer, unassigned; (-)) [(−)2-chloro-N-[2-[2-(difluoromethyl)pyrimidin-5-yl]-2-morpho] : 15

I: Cn1cc(C(CNC(=O)c2ccccc2Cl)N2CCC(F)(F)CC2)cn1 (single isomer, unassigned; (+)) [(+)2-chloro-N-[2-(4,4-difluoro-1-piperidyl)-2-(1-methylpyraz]
II: O=C(NCC(c1cnc(C(F)(F)F)nc1)N1CCC(F)(F)CC1)c1c(F)cc(F)cc1Cl (single isomer, unassigned; (-)) [(−)2-chloro-N-[2-(4,4-difluoro-1-piperidyl)-2-[2-(trifluorom]
## Input Of the pair I and II , name the member with the lesser recorded IC50. Select an item and report its label.
## Output II

a: Cc1ncc(C(CNC(=O)c2ccccc2Cl)N2CCC(F)(F)CC2)cn1 (single isomer, unassigned; (-)) [(−)2-chloro-N-[2-(4,4-difluoro-1-piperidyl)-2-(2-methylpyrim]
b: COc1cccc(C(=O)NCC(c2cnc(C(F)(F)F)nc2)N2CCC(F)(F)CC2)c1Cl (single isomer, unassigned; (+)) [(+)2-chloro-N-[2-(4,4-difluoro-1-piperidyl)-2-[2-(trifluorom]
## Input Compare a and b by numeric IC50 and name the larger one. Select an item and report its label.
## Output a

====

target: P2X7 receptor (Homo sapiens (Human), UniProt Q99572); test: P2X7 FLIPR assay: antagonism of BzATP response in 293 HEK cells stably expressing P2X7 receptor; conditions: FLIPR fluorescence (Fluo-4), agonist BzATP, 293 HEK cells stably transfected with P2X7 receptor
recorded.endpoint: IC50 (nM)

1) N#Cc1ccc(Cl)c(C(=O)NCC(c2ccc(Cl)cc2)N2CCOCC2)c1 (single isomer, unassigned; (+)) [(+)2-chloro-N-[2-(4-chlorophenyl)-2-morpholino-ethyl]-5-cyan] : 23

P: O=C(NCC(c1cccnc1)N1CCOCC1)c1cccc(Cl)c1Cl (stereo not drawn)
Q: Cc1ccc(C(CNC(=O)c2c(F)cccc2Cl)N2CCC(F)(F)CC2)cn1 (single isomer, unassigned; (-)) [(−)2-chloro-N-[2-(4,4-difluoro-1-piperidyl)-2-(6-methyl-3-py]
## Input Of the pair P and Q , name the member with the lesser recorded IC50. Select an item and report its label.
## Output Q
